This collection of values is drawn from patent US20260109732A1.

Experiment: Diameter and PDI from DLS measurements of mRNA nanoparticles with lipid amines
Type: physicochemical
Settings: CFTR mRNA nanoparticle with lipid amine
Where a name gives a salt, the structure may show the parent alone.
outcome-measure: PDI
Numbers only.

// each molecule listed below needs its PDI
1. CC[C@H](CC[C@@H](C)[C@H]1CC[C@H]2[C@@H]3CC=C4C[C@@H](OC(=O)CCCC(=O)N(CCCCNCCC(N)(CC)CC)CCC(N)(CC)CC)CC[C@]4(C)[C@H]3CC[C@]12C)C(C)C [SA182, trihydrochloride]
2. CC(C)CCC[C@@H](C)[C@H]1CC[C@H]2[C@@H]3CC=C4C[C@@H](OC(=O)N(CCCCNCC(O)CN)CC(O)CN)CC[C@]4(C)[C@H]3CC[C@]12C (stereo partly drawn) [SA88, trihydrochloride]
3. CC(C)CCC[C@@H](C)[C@H]1CC[C@H]2[C@@H]3CC=C4C[C@@H](OC(=O)CCCC(=O)N(CCCN)CCCCNCCCN)CC[C@]4(C)[C@H]3CC[C@]12C.Cl.Cl.Cl [SA58]
4. CC[C@H](CC[C@@H](C)[C@H]1CC[C@H]2[C@@H]3CC=C4C[C@@H](OC(=O)[C@H](C)N(CCCN)CCCCNCCCN)CC[C@]4(C)[C@H]3CC[C@]12C)C(C)C [SA118]
5. CC[C@H](CC[C@@H](C)[C@H]1CC[C@H]2[C@@H]3CC=C4C[C@@H](OC(=O)N(CCCN)CCCCCCN)CC[C@]4(C)[C@H]3CC[C@]12C)C(C)C [SA84, dihydrochloride]

A.
1: 0.13; 2: 0.19; 3: 0.10; 4: 0.16; 5: 0.13
